- system tested: UniProt P09619
- Sequence (P09619 whole entry): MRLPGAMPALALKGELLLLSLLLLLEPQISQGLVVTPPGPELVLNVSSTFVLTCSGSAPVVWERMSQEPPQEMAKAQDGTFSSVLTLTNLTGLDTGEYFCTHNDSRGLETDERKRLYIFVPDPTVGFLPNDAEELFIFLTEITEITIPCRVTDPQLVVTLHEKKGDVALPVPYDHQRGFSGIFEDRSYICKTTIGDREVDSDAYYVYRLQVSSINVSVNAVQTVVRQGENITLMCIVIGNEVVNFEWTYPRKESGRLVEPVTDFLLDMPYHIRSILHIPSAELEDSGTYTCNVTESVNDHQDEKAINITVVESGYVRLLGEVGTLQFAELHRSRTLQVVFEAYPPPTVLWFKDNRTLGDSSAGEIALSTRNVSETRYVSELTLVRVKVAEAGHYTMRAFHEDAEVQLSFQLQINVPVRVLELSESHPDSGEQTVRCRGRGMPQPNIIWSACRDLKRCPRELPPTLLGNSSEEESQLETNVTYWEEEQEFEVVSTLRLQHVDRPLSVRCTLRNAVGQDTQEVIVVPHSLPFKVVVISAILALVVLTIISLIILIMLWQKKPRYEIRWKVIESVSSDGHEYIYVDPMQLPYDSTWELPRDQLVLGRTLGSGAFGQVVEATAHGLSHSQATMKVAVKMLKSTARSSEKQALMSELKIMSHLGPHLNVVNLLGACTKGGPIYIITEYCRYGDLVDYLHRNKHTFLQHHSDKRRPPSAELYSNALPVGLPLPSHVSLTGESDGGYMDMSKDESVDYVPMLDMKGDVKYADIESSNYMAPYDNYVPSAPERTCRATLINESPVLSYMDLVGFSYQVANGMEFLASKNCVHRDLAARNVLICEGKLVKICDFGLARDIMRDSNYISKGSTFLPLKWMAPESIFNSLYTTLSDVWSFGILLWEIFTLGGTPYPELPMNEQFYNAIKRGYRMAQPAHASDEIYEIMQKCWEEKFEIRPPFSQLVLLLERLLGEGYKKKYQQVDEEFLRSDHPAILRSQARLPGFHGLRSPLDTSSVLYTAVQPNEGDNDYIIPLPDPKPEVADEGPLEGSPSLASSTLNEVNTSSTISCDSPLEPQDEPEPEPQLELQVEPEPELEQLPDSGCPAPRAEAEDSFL
test readout: IC50 (nM)
Reply with just the number (in nM).

*Q* Record lookup: for UniProt P09619, what IC50 belongs to CC(C)(C)c1cc(NC(=O)Nc2ccc(Nc3ncnc4c3OCCCN4)cc2)no1 ?
*A* 686

---

- system tested: Tyrosine-protein kinase FRK (Homo sapiens)
- Sequence (P42685 whole entry): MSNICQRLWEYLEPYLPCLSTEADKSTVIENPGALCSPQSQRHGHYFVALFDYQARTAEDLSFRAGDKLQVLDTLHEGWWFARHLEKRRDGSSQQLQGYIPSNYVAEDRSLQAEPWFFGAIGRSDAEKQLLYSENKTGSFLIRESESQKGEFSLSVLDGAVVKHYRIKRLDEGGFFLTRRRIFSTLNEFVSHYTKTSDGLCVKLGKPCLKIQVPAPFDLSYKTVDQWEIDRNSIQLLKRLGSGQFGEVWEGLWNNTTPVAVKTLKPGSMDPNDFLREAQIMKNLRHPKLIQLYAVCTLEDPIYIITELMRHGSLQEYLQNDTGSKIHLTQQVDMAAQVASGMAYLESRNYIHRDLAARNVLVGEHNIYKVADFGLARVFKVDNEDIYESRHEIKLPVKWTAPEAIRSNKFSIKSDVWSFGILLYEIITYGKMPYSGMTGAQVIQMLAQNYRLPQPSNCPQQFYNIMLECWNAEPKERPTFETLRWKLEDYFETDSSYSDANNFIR
- method description: Inhibition of recombinant human PTK5 (218 to end residues) using GGEEEEYFELVKKKK as substrate incubated for 40 mins in presence of [gamma33P]ATP by scintillation counting based radiometry assay
test readout: pIC50
Please express pIC50 as -log10 of the molar concentration.

*Q* Which pIC50 is listed for CC(C)(C)c1cc(NC(=O)Nc2ccc(Nc3ncnc4c3OCCCN4)cc2)no1 ?
*A* 7.29
